B1: tRNA (parent)
chain: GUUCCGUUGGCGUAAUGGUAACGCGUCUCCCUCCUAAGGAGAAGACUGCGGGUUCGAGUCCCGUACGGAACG

Variants of: B1
Test: yeast fitness relative to wild type (ratio to wild type); higher = fitter; tRNA-Arg(CCU), competitive growth, 37 C, YPD
Fewer inactive variants are shown than the library holds.
Recorded endpoint: yeast fitness

Some solved entries appear below for comparison.
G9A C29U U59G A65C: ≤ 0.5
U3C U19A C22U G63A: ≤ 0.5
C5U U32A A43G: ≤ 0.5
C24U U32G A40U U64G A65G: ≤ 0.5
G17A U28G C62G: ≤ 0.5
C31U C34U G38A G44C: ≤ 0.5
G10A A15U A36U: ≤ 0.5
U32A C49U G68A: ≤ 0.5

Give me yeast fitness for each of these variants, listed below.
1. A15C U26A C31G U32A G63A
2. C27A C49U C61A

OUT:
1: ≤ 0.5; 2: ≤ 0.5

Parameter requested: yeast fitness. Apply to each item below.
1. U3C C11G A21U G56A
2. A14U G17C C30G G41C A42C U47C G50A C62A
3. U13C C29G A36G G41A
4. C4A C11U U32A G38C C55U G58A G67A
5. U8C G25C C31U A69C

OUT:
1: ≤ 0.5; 2: ≤ 0.5; 3: ≤ 0.5; 4: ≤ 0.5; 5: ≤ 0.5
